TARGET: T1, Rat IL2Rγ extracellular domain expressed with a C-terminal myc-myc-hexahistidine tag (rat)
T1 construct: whole entry is the tagged construct; also called rIL-2Rg-MMH; rat IL-2Rg-MMH
T1 chain: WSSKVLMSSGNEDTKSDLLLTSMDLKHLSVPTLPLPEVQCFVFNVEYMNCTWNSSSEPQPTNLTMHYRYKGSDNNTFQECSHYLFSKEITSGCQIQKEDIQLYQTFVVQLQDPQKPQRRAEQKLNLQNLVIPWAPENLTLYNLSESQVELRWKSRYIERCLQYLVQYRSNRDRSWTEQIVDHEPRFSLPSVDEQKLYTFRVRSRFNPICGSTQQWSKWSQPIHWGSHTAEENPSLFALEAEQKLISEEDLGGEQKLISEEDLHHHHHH
TEST: SPR Biacore 4000, anti-hFc-captured mAb, 37 C
TEST READOUT: 100 nM Ag Bound (RU)
All answers are understood in RU, so give the number only.

>  <BINDER>
H4H12858P (antibody, human IgG4 S228P, kappa, V domains shown, fully human anti-IL2Rgamma mAb, human IgG4 Fc; also called REGN9433) VH: EVQLVESGGDLVQPGGSLRLSCTASGFIFRNYAMNWVRQAPGKGLEWLSGILGSNDNTYYVDSVKGRFTISRDNSRNTLYLQMNSLRAEDSAVYYCAKGDAGGFDYWGQGTLVTVSS VL: DVVMTQSPLSLPVILGQPASISCRSSQSLVSSDGNTYLNWFQQRPGQSPRRLIYKVSNRDSGVPDRFSGSGSGTDFTLKISRVEAEDVGAYYCMQGSYWPPTFGQGTKLEIKR

>  <100 nM Ag Bound (RU)>
0

$$$$

Consider the binder H4H12900P (antibody, human IgG4 S228P, kappa, V domains shown, fully human anti-IL2Rgamma mAb, human IgG4 Fc) VH: QVQLVESGGGLVKPGGSLRLSCEASGFTFNDFYMTWIRQAPGKGLEWIAYISKSGDKMRYADSVKGRFSTSRDNAKNSLSLQMNSLRAEDTAVYYCARFYGDIWGQGTLVTVSS VL: DIQLTQSPSFLSASVGDRVTITCWASQDISSFLVWYQQKPGKAPNLLIYAASALQSGVPSRFSGSGSGTEFTLTISSLQPEDFASYYCEQLNNYPWTFGQGTKVEIKR and give its recorded 100 nM Ag Bound. 27
